// provenance: the NIST ThermoML archive (doi:10.1016/j.fluid.2014.04.002)

assay: refractive index (Na D-line) (dimensionless); settings: 323.15 K; 101.33 kPa; Liquid; Standard Abbe refractometry
MEASUREMENT KIND: refractive index

COMPOUND | refractive index
C1CCOC1 [tetrahydrofuran] | 1.39098
COCCOCCOCCOCCOC | 1.41985
OCCCO | 1.43101
CCOC(=O)C(C)O (racemic) [DL-ethyl lactate] | 1.39898
CC(O)CO (stereo not given) | 1.42246

###

conditions: 313.15 K; 101 kPa; Liquid; Concentric cylinders viscometry
MEASUREMENT KIND: viscosity (mPa·s)

# annotated cases, reported viscosity shown
COMPOUND | VALUE REPORTED
OCCCO | 21.97
COCCOCCOCCOCCOC | 2.407
CC(O)CO (stereo not given) | 19.85

a: C1CCOC1 [tetrahydrofuran]
b: CCOC(=O)C(C)O (racemic) [DL-ethyl lactate]
Q: When their viscosity values are compared, which is larger, a or b ? Pick one; state its label.
Result: b

###

settings: 308.15 K; 101 kPa; Liquid; Vibrating tube method
MEASUREMENT KIND: mass density (kg/m3)

COMPOUND | VALUE REPORTED
CCOC(=O)C(C)O (racemic) [DL-ethyl lactate] | 1017.42
OCCCO | 1043.43
COCCOCCOCCOCCOC | 998.153
CC(O)CO (stereo not given) | 1025.14
C1CCOC1 [tetrahydrofuran] | 871.384

###

details: 288.15 K; 101 kPa; Liquid; Concentric cylinders viscometry
MEASUREMENT KIND: viscosity (mPa·s)

COMPOUND | viscosity, mPa·s
CCOC(=O)C(C)O (racemic) [DL-ethyl lactate] | 3.207

I: C1CCOC1 [tetrahydrofuran]
II: COCCOCCOCCOCCOC [2,5,8,11,14-pentaoxapentadecane]
Q: When their viscosity values are compared, which is larger, I or II ? Pick one; state its label.
Result: II
